system-name: T1, M2-1(58-177) core domain (human respiratory syncytial virus …, UniProt P04545 58-177)
T1 sequence: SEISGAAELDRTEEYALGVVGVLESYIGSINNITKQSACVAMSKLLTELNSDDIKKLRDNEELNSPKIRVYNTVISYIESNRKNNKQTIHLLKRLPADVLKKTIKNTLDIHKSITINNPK
run-description: NMR titration; NMR: 50-60 µM protein, 293 K, 14.1 T, 1:1 model, buffer/salt/pH not in material; EMSA: 100 µM GST fusion eluted with GSH, ~50 µM tRNA, 1 h room temperature, 1.5% agarose, 1x Tris-Glycine, 4°C
run-conditions: protein: recombinant; tags: N-terminal Gly-Ser left after thrombin cleavage of GST; predicted hairpin, poly-U loop, 2-3 bp stem
observation-type: pKd
Answers are plain numbers, as −log10 of the molar value.

binder | pKd
CGCAUUUUUUCGCGU (ssRNA) [leader-neg] | 4.12

As a next step, examine the binder that follows.
Form: binder = CCCAUUUUUUUGGUU (ssRNA) [long U-rich] ; pKd = 3.90
